Values were extracted from paper PMC8453750.

assay: Part 1: mobocertinib-itraconazole DDI study, plasma PK; type: in vivo, human; details: human, plasma, oral, AUC0-∞, Arithmetic Means (SD), mobocertinib 20 mg + itraconazole 200 mg once daily (test), plasma; footnote a: mean (%CV)
measured-metric: AUC(0-inf) (ng·h/mL)
Just the number please, in ng·h/mL, no unit attached.

Task: State the recorded AUC(0-inf) for this entry: C=CC(=O)Nc1cc(Nc2ncc(C(=O)OC(C)C)c(-c3cn(C)c4ccccc34)n2)c(OC)cc1N(C)CCN(C)C
Output: 907

###

assay: Part 1: mobocertinib-itraconazole DDI study, plasma PK; assay type: in vivo, human; conditions: human, plasma, oral, 20 mg, Cmax, Geometric Means (%CV), mobocertinib 20 mg alone (reference)
measured-metric: Cmax (ng/mL)
// note: answer is a bare numeric in ng/mL

Task: Request the reported Cmax associated with C=CC(=O)Nc1cc(Nc2ncc(C(=O)OC(C)C)c(-c3cn(C)c4ccccc34)n2)c(OC)cc1N(C)CCN(C)C [Mobocertinib]
Output: 5.52

###

assay: Part 1: mobocertinib-itraconazole DDI study, plasma PK; format: in vivo, human; details: human, plasma, oral, 20 mg, Cmax, Arithmetic Means (SD), mobocertinib 20 mg alone (reference), plasma; footnote a: mean (%CV)
measured-metric: Cmax (ng/mL)
Your answer should be a plain number; it is taken to be in ng/mL.

Task: Param item = C=CC(=O)Nc1cc(Nc2ncc(C(=O)OC(C)C)c(-c3cn(C)c4ccccc34)n2)c(OC)cc1N(C)CCN(C)C ; retrieve measured Cmax.
Output: 5.78

###

assay: Part 1: mobocertinib-itraconazole DDI study, plasma PK; assay type: in vivo, human; conditions: human, plasma, oral, 20 mg, AUC0-∞, Geometric Means (%CV), mobocertinib 20 mg alone (reference)
measured-metric: AUC(0-inf) (ng·h/mL)
Response body: numeric value in ng·h/mL, unit text excluded.

Task: State the recorded AUC(0-inf) for this entry: C=CC(=O)Nc1cc(Nc2ncc(C(=O)OC(C)C)c(-c3cn(C)c4ccccc34)n2)c(OC)cc1N(C)CCN(C)C [Mobocertinib]
Output: 106
